System: HL-60(TB) leukemia
Experiment: NCI-60 one-dose screen, 48 h
Conditions: 10 µM unless noted
The panel holds about 83,000 compounds, 20% with a hit somewhere; the sample as a whole holds those more often. Active and inactive are the calls of the source. Rule for the calls: active = growth percent below 10; inactive = the rest.
Answer with one of the outcomes given here: active, inactive

Q. Just curious, what result did Nc1nc2nnc(-c3ccccc3)c(-c3ccccc3)n2n1 get here?
A. inactive

Q. Just curious, what result did O=C(NC1CC1)c1cc2n(n1)CC(c1ccccc1)N2 (centres undefined) get here?
A. inactive

Q. Just curious, what result did COc1cc(-c2nn(-c3ccc(NC(=O)Nc4cc(C(F)(F)F)cc(C(F)(F)F)c4)cc3)cc2-c2ccncc2)ccc1Cl get here?
A. active

Q. Just curious, what result did Nc1ccc2[nH]c(-c3ccccc3)cc(=O)c2c1 get here?
A. inactive

Q. Just curious, what result did CC1(C)CN(c2cnc(C(=O)Nc3cc(F)cc4cccnc34)cn2)CCN1 get here?
A. inactive

Q. Just curious, what result did C/C(=N\N1CC(=O)NC1=O)c1ccc([N+](=O)[O-])o1 get here?
A. inactive

Q. Just curious, what result did CCc1ccc(-c2ccc(=O)n(-c3ccc(S(N)(=O)=O)cc3)n2)cc1 get here?
A. active

Q. Just curious, what result did Cc1cc(Nc2cc(N3CCN(C)CC3)nc(Sc3ccc(NC(=O)C4CC4)cc3)n2)n[nH]1 get here?
A. inactive

Q. Just curious, what result did CN(C)c1ccc(/C=C(\C#N)c2nc3ccccc3s2)cc1 get here?
A. inactive

Q. Just curious, what result did Cc1[nH]n(C(=O)c2ccncc2)c(=O)c1N=Nc1ccc(O)c(C(=O)O)c1 get here?
A. inactive

Q. Just curious, what result did N=C(N)c1ccc(-c2ccc(-c3ccc(Cl)cc3Cl)s2)cc1 get here?
A. active

Q. Just curious, what result did COc1cc2cc(NCc3ccc(F)cc3)nc(C)c2cc1OC get here?
A. inactive

Q. Just curious, what result did CC(C)(C)c1cc(/C=N/NC(=O)c2ccccc2NC(=O)c2cccs2)c(O)c(C(C)(C)C)c1 get here?
A. inactive

Q. Just curious, what result did CCCCCCCCCCCC[n+]1ccccc1 get here?
A. active

Q. Just curious, what result did C=CCOc1ccc(Cl)cc1Cl get here?
A. inactive

Q. Just curious, what result did CC1CC(O)CC(C)(C)C1 (centres undefined) get here?
A. inactive

Q. Just curious, what result did CCN1CCN(CCNc2nccc(-c3c(-c4cccc(OC)c4)nc4occn34)n2)S1(=O)=O get here?
A. inactive

Q. Just curious, what result did OCCS get here?
A. inactive

Q. Just curious, what result did CC(C)NS(=O)(=O)/N=C1\NC(=O)NC1=C(Cl)Cl get here?
A. inactive

Q. Just curious, what result did O=C(O)COc1ccc(-c2cssc2=S)cc1 get here?
A. inactive

Q. Just curious, what result did O=C(CN1CCN(c2ccccc2)CC1)N1CCN(c2nnc(-c3ccc(Cl)cc3)c(-c3ccc(Cl)cc3)n2)CC1 get here?
A. active

Q. Just curious, what result did COc1cccc(NC(=O)c2sc3nc(C)c(C(O)c4ccccc4)cc3c2N)c1 (centres undefined) get here?
A. active

Q. Just curious, what result did c1ccc2oc(-c3cnc4nonc4n3)cc2c1 get here?
A. inactive

Q. Just curious, what result did CC1(C)OCC2OC3(C(=O)O)OC(C)(C)OC3C2O1 (centres undefined) get here?
A. inactive
